Numbers sourced from patent US20250344734A1.

- TESTED ON: T2R14 (TAS2R14) (Homo sapiens)
- Construct: expressed in transfected cells; host or cells: cells expressing a promiscuous G protein (e.g., G16g44)
- Sequence (Q9NYV8 whole entry): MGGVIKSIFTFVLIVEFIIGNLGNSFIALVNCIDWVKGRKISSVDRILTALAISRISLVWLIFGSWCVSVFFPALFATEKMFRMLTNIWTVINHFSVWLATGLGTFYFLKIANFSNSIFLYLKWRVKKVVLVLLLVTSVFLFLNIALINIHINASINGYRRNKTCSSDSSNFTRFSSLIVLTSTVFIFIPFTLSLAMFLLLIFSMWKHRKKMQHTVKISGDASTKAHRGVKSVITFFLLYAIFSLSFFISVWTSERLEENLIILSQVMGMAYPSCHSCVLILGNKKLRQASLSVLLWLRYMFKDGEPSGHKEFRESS
- TEST METHOD NOTES: FLIPR calcium assay, block of bitter agonist response, T2R14
- Assay type: cell-based
- CONDITION CONTEXT: unsaturated fatty acid concentration of 200 µM, cells stimulated with known bitter agonist, read-out: percentage block of cellular response over baseline, 14
Provide the reported inhibition at 200 µM of each item.

C=CCCCCCCCC(=O)O; > 25%
CCCCCCC/C=C/C(=O)O; 50%
CCCCCC/C=C\CCCC(=O)O; > 50%
CCCCCCCC/C=C/C(=O)O; 80%
CCCCCC/C=C/C(=O)O; > 40%

Give inhibition at 200 µM for all molecules that follow.
1. CC(C)/C=C/CCCCC(=O)O
2. C=CCCCCCCCCC(=O)O
3. C=CCCCCCCCCCCC(=O)O
4. CCCCCCCCC/C=C/C(=O)O

> 25%
> 65%
> 40%
> 90%
